tested on: HCC-366; assay: relative viability (nuclei count vs DMSO), 5 days (fraction); higher = more cells survive; conditions: first compound 0.005 µM
// NB: equality with 0.5 counts as not fulfilled; only relative viability strictly below is fulfilled

COMPOUND: CC1(C)CCC(c2ccc(Cl)cc2)=C(CN2CCN(c3ccc(C(=O)NS(=O)(=O)c4ccc(N[C@H](CCN5CCOCC5)CSc5ccccc5)c(S(=O)(=O)C(F)(F)F)c4)cc3)CC2)C1 [Navitoclax] + CC(C)C[C@H](NC(=O)[C@H](Cc1ccccc1)NC(=O)c1cnccn1)B(O)O [Bortezomib] (partner 0.002 µM)
CLASS NAME: not fulfilled

Confirm or reject: relative viability of CC1(C)CCC(c2ccc(Cl)cc2)=C(CN2CCN(c3ccc(C(=O)NS(=O)(=O)c4ccc(N[C@H](CCN5CCOCC5)CSc5ccccc5)c(S(=O)(=O)C(F)(F)F)c4)cc3)CC2)C1 [Navitoclax] + C[C@@H](Oc1cc(-c2cnn(C3CCNCC3)c2)cnc1N)c1c(Cl)ccc(F)c1Cl [Crizotinib] (partner 1 µM) lies strictly below 0.5
fulfilled

Another compound to check: CC1(C)CCC(c2ccc(Cl)cc2)=C(CN2CCN(c3ccc(C(=O)NS(=O)(=O)c4ccc(N[C@H](CCN5CCOCC5)CSc5ccccc5)c(S(=O)(=O)C(F)(F)F)c4)cc3)CC2)C1 [Navitoclax] + Cc1nc(Nc2ncc(C(=O)Nc3c(C)cccc3Cl)s2)cc(N2CCN(CCO)CC2)n1 [Dasatinib] (partner 0.075 µM)
not fulfilled

Field entry: CC1(C)CCC(c2ccc(Cl)cc2)=C(CN2CCN(c3ccc(C(=O)NS(=O)(=O)c4ccc(N[C@H](CCN5CCOCC5)CSc5ccccc5)c(S(=O)(=O)C(F)(F)F)c4)cc3)CC2)C1 [Navitoclax] + Nc1nc2[nH]cc(CCc3ccc(C(=O)N[C@@H](CCC(=O)O)C(=O)O)cc3)c2c(=O)[nH]1 [Pemetrexed] (partner 0.2 µM)
fulfilled

Same question, CC1(C)CCC(c2ccc(Cl)cc2)=C(CN2CCN(c3ccc(C(=O)NS(=O)(=O)c4ccc(N[C@H](CCN5CCOCC5)CSc5ccccc5)c(S(=O)(=O)C(F)(F)F)c4)cc3)CC2)C1 [Navitoclax] + COc1cc2c(Oc3ccc(NC(=O)C4(C(=O)Nc5ccc(F)cc5)CC4)cc3F)ccnc2cc1OCCCN1CCOCC1 [Foretinib] (partner 0.25 µM) this time
not fulfilled

----------
Property: relative viability; scope: individual molecules
system: NCI-H358; assay: relative viability (nuclei count vs DMSO), 5 days (fraction); higher = more cells survive; details: first compound 2.53 µM
The answer should be written as a number, with no unit following it.

Recorded results for 3 molecules are shown here.
MOLECULE: C=C1C(=O)O[C@@H](CCCCCCCC)[C@@H]1C(=O)O [C-75] + NC(=O)Nc1cc(-c2cccc(F)c2)sc1C(=O)N[C@H]1CCCNC1 [AZD7762] (partner 0.2 µM)
REPORTED MEASUREMENT: 0.456
--
MOLECULE: C=C1C(=O)O[C@@H](CCCCCCCC)[C@@H]1C(=O)O [C-75] + N=C(N)NC(=N)NCCc1ccccc1 [Phenformin] (partner 250 µM)
REPORTED MEASUREMENT: 0.326
--
MOLECULE: Oc1nc(-c2ccc(C(F)(F)F)cc2)nc2c1CSCC2 [XAV939] + O=C(CCCCCCC(=O)Nc1ccccc1)NO [Vorinostat] (partner 1 µM)
REPORTED MEASUREMENT: 0.565

// switching to the query molecule
relative viability for C=C1C(=O)O[C@@H](CCCCCCCC)[C@@H]1C(=O)O [C-75] + CS(=O)(=O)CCNCc1ccc(-c2ccc3ncnc(Nc4ccc(OCc5cccc(F)c5)c(Cl)c4)c3c2)o1 [Lapatinib] (partner 2 µM) ?
0.458

----------
system: HCC-15; assay: relative viability (nuclei count vs DMSO), 5 days (fraction); higher = more cells survive; details: first compound 0.3162 µM
VALUE KIND: relative viability

MOLECULE: NC(=O)Nc1cc(-c2cccc(F)c2)sc1C(=O)N[C@H]1CCCNC1 [AZD7762] + Nc1ncn([C@H]2C[C@H](O)[C@@H](CO)O2)c(=O)n1 [Decitabine] (partner 2 µM)
relative viability: 0.553
//
MOLECULE: NC(=O)Nc1cc(-c2cccc(F)c2)sc1C(=O)N[C@H]1CCCNC1 [AZD7762] + C[C@]1(O)C[C@@H](c2nc(-c3ccc4ccc(-c5ccccc5)nc4c3)c3c(N)nccn32)C1 [Linsitinib] (partner 1 µM)
relative viability: 0.93
//
MOLECULE: NC(=O)Nc1cc(-c2cccc(F)c2)sc1C(=O)N[C@H]1CCCNC1 [AZD7762] + CC1(C)CCC(c2ccc(Cl)cc2)=C(CN2CCN(c3ccc(C(=O)NS(=O)(=O)c4ccc(N[C@H](CCN5CCOCC5)CSc5ccccc5)c(S(=O)(=O)C(F)(F)F)c4)cc3)CC2)C1 [Navitoclax] (partner 0.5 µM)
relative viability: 0.728
//
MOLECULE: NC(=O)Nc1cc(-c2cccc(F)c2)sc1C(=O)N[C@H]1CCCNC1 [AZD7762] + CC(=O)c1c(C)c2cnc(Nc3ccc(N4CCNCC4)cn3)nc2n(C2CCCC2)c1=O [Palbociclib] (partner 0.5 µM)
relative viability: 0.676
//
MOLECULE: NC(=O)Nc1cc(-c2cccc(F)c2)sc1C(=O)N[C@H]1CCCNC1 [AZD7762] + CS(=O)(=O)CCNCc1ccc(-c2ccc3ncnc(Nc4ccc(OCc5cccc(F)c5)c(Cl)c4)c3c2)o1 [Lapatinib] (partner 2 µM)
relative viability: 0.782

Find the recorded relative viability belonging to NC(=O)Nc1cc(-c2cccc(F)c2)sc1C(=O)N[C@H]1CCCNC1 [AZD7762] + CC(C)C[C@H](NC(=O)[C@H](Cc1ccccc1)NC(=O)c1cnccn1)B(O)O [Bortezomib] (partner 0.002 µM) and report it.
0.937

Another molecule to look at: NC(=O)Nc1cc(-c2cccc(F)c2)sc1C(=O)N[C@H]1CCCNC1 [AZD7762] + COc1cc2c(Oc3ccc(NC(=O)C4(C(=O)Nc5ccc(F)cc5)CC4)cc3F)ccnc2cc1OCCCN1CCOCC1 [Foretinib] (partner 0.25 µM)
1.06

Then this molecule: NC(=O)Nc1cc(-c2cccc(F)c2)sc1C(=O)N[C@H]1CCCNC1 [AZD7762] + O=C(CCCCCCC(=O)Nc1ccccc1)NO [Vorinostat] (partner 1 µM)
0.734

----------
system: LC-2-ad; experiment: relative viability (nuclei count vs DMSO), 5 days (fraction); higher = more cells survive; conditions: first compound 1.265 µM
Measured relative viability, listed per entry.
Give the figure by itself; no unit, no explanation.

Example entries and their recorded answers appear below.
MOLECULE: O=C(O)c1ccc(-c2c[nH]c3ncc(-c4ccccc4)cc23)cc1C1CCCC1 + C[C@@H](Oc1cc(-c2cnn(C3CCNCC3)c2)cnc1N)c1c(Cl)ccc(F)c1Cl [Crizotinib] (partner 1 µM)
relative viability: 0.364
--
MOLECULE: O=C(O)c1ccc(-c2c[nH]c3ncc(-c4ccccc4)cc23)cc1C1CCCC1 + CC(=O)Nc1cccc(-n2c(=O)n(C3CC3)c(=O)c3c(Nc4ccc(I)cc4F)n(C)c(=O)c(C)c32)c1 [Trametinib] (partner 0.02 µM)
relative viability: 0.769
--
MOLECULE: O=C(O)c1ccc(-c2c[nH]c3ncc(-c4ccccc4)cc23)cc1C1CCCC1 + COc1cccc2cc(-c3nc([C@H]4CC[C@H](C(=O)O)CC4)n4ncnc(N)c34)[nH]c12 [OSI-027] (partner 0.5 µM)
relative viability: 0.68

Kindly review the next molecule as well.
// returns reported relative viability for input O=C(O)c1ccc(-c2c[nH]c3ncc(-c4ccccc4)cc23)cc1C1CCCC1 + O=C(CCCCCCC(=O)Nc1ccccc1)NO [Vorinostat] (partner 1 µM)
0.454

----------
relative viability for assorted compounds
system: HARA; test: relative viability (nuclei count vs DMSO), 5 days (fraction); higher = more cells survive; conditions: first compound 0.4 µM
Field format: numeric only.

Example entries begin here.
COMPOUND: O=C(O)c1ccc(-c2c[nH]c3ncc(-c4ccccc4)cc23)cc1C1CCCC1 + Cc1nc(NC(=O)N2CCC[C@H]2C(N)=O)sc1-c1ccnc(C(C)(C)C(F)(F)F)c1 [Alpelisib] (partner 2 µM)
ASSAY TARGET: HARA
relative viability: 0.812

COMPOUND: O=C(O)c1ccc(-c2c[nH]c3ncc(-c4ccccc4)cc23)cc1C1CCCC1 + CCNC(=O)c1noc(-c2cc(C(C)C)c(O)cc2O)c1-c1ccc(CN2CCOCC2)cc1 [Luminespib] (partner 0.01 µM)
ASSAY TARGET: HARA
relative viability: 0.141

COMPOUND: O=C(O)c1ccc(-c2c[nH]c3ncc(-c4ccccc4)cc23)cc1C1CCCC1 + C[C@@H](Oc1cc(-c2cnn(C3CCNCC3)c2)cnc1N)c1c(Cl)ccc(F)c1Cl [Crizotinib] (partner 1 µM)
ASSAY TARGET: HARA
relative viability: 1.02

COMPOUND: O=C(O)c1ccc(-c2c[nH]c3ncc(-c4ccccc4)cc23)cc1C1CCCC1 + Nc1nc2[nH]cc(CCc3ccc(C(=O)N[C@@H](CCC(=O)O)C(=O)O)cc3)c2c(=O)[nH]1 [Pemetrexed] (partner 0.2 µM)
ASSAY TARGET: HARA
relative viability: 0.222

COMPOUND: O=C(O)c1ccc(-c2c[nH]c3ncc(-c4ccccc4)cc23)cc1C1CCCC1 + CC(=O)c1c(C)c2cnc(Nc3ccc(N4CCNCC4)cn3)nc2n(C2CCCC2)c1=O [Palbociclib] (partner 0.5 µM)
ASSAY TARGET: HARA
relative viability: 0.248

Can you look up relative viability on HARA for O=C(O)c1ccc(-c2c[nH]c3ncc(-c4ccccc4)cc23)cc1C1CCCC1 + CS(=O)(=O)N1CCN(Cc2cc3nc(-c4cccc5[nH]ncc45)nc(N4CCOCC4)c3s2)CC1 [Pictilisib] (partner 1 µM) ?
0.449

Next entry: O=C(O)c1ccc(-c2c[nH]c3ncc(-c4ccccc4)cc23)cc1C1CCCC1 + Cc1nc(Nc2ncc(C(=O)Nc3c(C)cccc3Cl)s2)cc(N2CCN(CCO)CC2)n1 [Dasatinib] (partner 0.075 µM)
0.308
